Where do the numbers come from? From patent US7323447B2.

Here, each record is paired with measured pEC50 data.
test system: HCV replicon in HUH-7 cells; experiment: HCV replicon FRET assay; assay type: cell-based, Hepatitis C virus (strain 1b); conditions: Hepatitis C virus, Huh-7, read-out: EC50 Range, HCV replicon cell assay; Table 1
pEC50: −log10 of the molar value.

Worked cases, answers included:
C=C[C@@H]1C[C@]1(NC(=O)[C@@H]1C[C@@H](Oc2nccc3cc(OC)ccc23)CN1C(=O)[C@@H](OC(=O)NC(C)(C)C)C(C)(C)C)C(=O)NS(=O)(=O)c1cn(C)cn1	< 5.30
C=C[C@@H]1C[C@]1(NC(=O)[C@@H]1C[C@@H](Oc2nc(-c3ccc(OC(F)(F)F)cc3)cc3cc(OC)ccc23)CN1C(=O)[C@@H](O)C1CCCCC1)C(=O)NS(=O)(=O)C1CC1	5.30 to 6.30
C=C[C@@H]1C[C@]1(NC(=O)[C@@H]1C[C@@H](Oc2nccc3ccccc23)CN1C(=O)[C@@H](OC(=O)Nc1ccc(OC)cc1)C(C)(C)C)C(=O)NS(=O)(=O)C1CC1	5.30 to 6.30
C=C[C@@H]1C[C@]1(NC(=O)[C@@H]1C[C@@H](Oc2cc(-c3ccccc3)nc3cc(OC)ccc23)CN1C(=O)[C@@H](O)Cc1c[nH]cn1)C(=O)NS(=O)(=O)C1CC1	< 5.30
CCC1C[C@]1(NC(=O)[C@@H]1C[C@@H](Oc2cc(-c3ccccc3)nc3cc(OC)ccc23)CN1C(=O)C1(O)CC1)C(=O)NS(=O)(=O)C1CC1 (stereo partly shown)	5.30 to 6.30

Please state recorded pEC50 (tested on HCV replicon in HUH-7 cells) of C=C[C@@H]1CC1(NC(=O)[C@@H]1C[C@@H](Oc2cc(-c3ccccc3)nc3cc(OC)ccc23)CN1C(=O)[C@@H](OC(=O)NC(C)(C)C)C(C)(C)C)C(=O)NS(=O)(=O)C1(CC2CC2)CC1 (stereo partly shown) 5.30 to 6.30

Please state recorded pEC50 (tested on HCV replicon in HUH-7 cells) of `C=C[C@@H]1C[C@]1(NC(=O)[C@@H]1C[C@@H](Oc2nccc3ccccc23)CN1C(=O)[C@@H](OC(=O)Nc1ccccc1OC)C(C)(C)C)C(=O)NS(=O)(=O)C1CC1` 5.30 to 6.30

Please state recorded pEC50 (tested on HCV replicon in HUH-7 cells) of `C=C[C@@H]1C[C@]1(NC(=O)[C@@H]1C[C@@H](Oc2nccc3cc(OC)ccc23)CN1C(=O)[C@@H](OC(=O)NC(C)(C)C)C(C)(C)C)C(=O)NS(=O)(=O)N(C)C` 5.30 to 6.30

Please state recorded pEC50 (tested on HCV replicon in HUH-7 cells) of `C=C[C@@H]1C[C@]1(NC(=O)[C@@H]1C[C@@H](Oc2cc(-c3ccccc3)nc3cc(OC)ccc23)CN1C(=O)[C@@H](OC(=O)Nc1ccccc1)C(C)(C)C)C(=O)NS(=O)(=O)C1CC1` > 6.30

Please state recorded pEC50 (tested on HCV replicon in HUH-7 cells) of `C=C[C@@H]1C[C@]1(NC(=O)[C@@H]1C[C@@H](Oc2nccc3ccccc23)CN1C(=O)[C@@H](OC(=O)NC(C)(C)C)C(C)(C)C)C(=O)NS(=O)(=O)C1CC1` 5.30 to 6.30
